molecular target: human DGAT2 (Homo sapiens); construct: FLAG (DYKDDDDK); membrane fraction used; test: DGAT2 enzyme activity inhibition, Phospholipid FlashPlate SPA; conditions: recombinant human DGAT2 membrane protein from Sf-21 cells; inhibition of [14C]-TG production; 37° C.

{"Molecule": "CCOc1cccnc1O[C@@H]1CCCN(c2cncc(Nc3ccnc(-c4cccc(CC(C)(C)C(=O)O)c4)n3)n2)C1 [Example 171]", "IC50": "240 nM"}
{"Molecule": "CCOc1cccnc1O[C@@H]1CCCN(c2cncc(Nc3ccc(F)c(-c4cc(CC(C)(C)C(=O)O)ccc4F)n3)n2)C1 [Example 106]", "IC50": "490 nM"}
{"Molecule": "CCOc1ccccc1O[C@@H]1CCCN(c2cncc(Nc3nc4cc(CC(=O)O)ccc4o3)n2)C1 [Example 12]", "IC50": "3400 nM"}
{"Molecule": "CCOc1ccccc1O[C@@H]1CCCN(c2nccc(Nc3cccc(-c4cccc(CC(C)(C)C(=O)O)c4)n3)n2)C1 [Example 66]", "IC50": "3500 nM"}
{"Molecule": "CCOc1ccccc1O[C@@H]1CCCN(c2cncc(Nc3nc4cc(CC(C)(C)C(=O)O)ccc4o3)n2)C1 [Example 14]", "IC50": "3100 nM"}
{"Molecule": "CCOc1cccnc1O[C@@H]1CCCN(c2cncc(Nc3cccc(-c4ccc(C(C)(C)C(=O)O)cc4)n3)n2)C1 [Example 62]", "IC50": "170 nM"}
{"Molecule": "CCOc1ccccc1O[C@@H]1CCCN(c2cncc(Nc3nc4cc(C(C)(C)C(=O)O)ccc4o3)n2)C1 [Example 13]", "IC50": "960 nM"}
{"Molecule": "CCOc1ccccc1O[C@@H]1CCCN(c2cncc(Nc3ccnc(-c4ccc(C(C)(C)C(=O)O)cc4)n3)n2)C1 [Example 169]", "IC50": "260 nM"}
{"Molecule": "CCOc1ccccc1O[C@@H]1CCCN(c2cncc(Nc3cccc(Oc4ccc(C(=O)O)cc4)n3)n2)C1 [Example 89]", "IC50": "1200 nM"}
{"Molecule": "CCOc1ccccc1O[C@@H]1CCCN(c2cncc(Nc3cccc(OCc4ccc(C(=O)O)cc4)n3)n2)C1 [Example 99]", "IC50": "570 nM"}

###

Molecular target: human DGAT2 (Homo sapiens)
Construct: FLAG (DYKDDDDK); membrane fraction used
Sequence (Q96PD7 1-388): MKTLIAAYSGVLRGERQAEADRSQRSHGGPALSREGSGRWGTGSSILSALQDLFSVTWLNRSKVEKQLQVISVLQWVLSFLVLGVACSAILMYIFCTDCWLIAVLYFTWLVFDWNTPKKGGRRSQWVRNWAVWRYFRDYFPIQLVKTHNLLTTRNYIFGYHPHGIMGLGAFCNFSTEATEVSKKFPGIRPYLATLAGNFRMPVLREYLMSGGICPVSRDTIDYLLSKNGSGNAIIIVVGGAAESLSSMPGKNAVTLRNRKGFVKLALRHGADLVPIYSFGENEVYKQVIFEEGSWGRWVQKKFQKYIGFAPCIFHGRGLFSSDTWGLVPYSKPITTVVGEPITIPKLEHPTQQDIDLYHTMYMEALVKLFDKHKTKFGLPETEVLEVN
Test: DGAT2 enzyme activity inhibition, Phospholipid FlashPlate SPA
Details: recombinant human DGAT2 membrane protein from Sf-21 cells; inhibition of [14C]-TG production; 37° C.
Under this convention, y denotes IC50 strictly below 700 nM and n denotes IC50 at or above 700 nM.

{"Smiles Str": "CCOc1ccccc1O[C@@H]1CCCN(c2cncc(Nc3ccc(CC(=O)O)cn3)n2)C1", "Measurement Target": "human DGAT2 (Homo sapiens)", "Group Label": "n"}
{"Smiles Str": "CCOc1ccccc1O[C@@H]1CCCN(c2cncc(Nc3cncc(-c4cccc(CC(C)(C)C(=O)O)c4)c3)n2)C1", "Measurement Target": "human DGAT2 (Homo sapiens)", "Group Label": "n"}
{"Smiles Str": "CCOc1ccccc1O[C@@H]1CCCN(c2cncc(Nc3nc(-c4ccccc4)co3)n2)C1", "Measurement Target": "human DGAT2 (Homo sapiens)", "Group Label": "n"}
{"Smiles Str": "CCOc1ccccc1O[C@@H]1CCCN(c2cncc(Nc3nc4ccccc4s3)n2)C1", "Measurement Target": "human DGAT2 (Homo sapiens)", "Group Label": "n"}
{"Smiles Str": "CCOc1ccccc1O[C@@H]1CCCN(c2nccc(Nc3nccc(-c4cccc(CC(C)(C)C(=O)O)c4)n3)n2)C1", "Measurement Target": "human DGAT2 (Homo sapiens)", "Group Label": "n"}
{"Smiles Str": "CCOc1cccnc1O[C@@H]1CCCN(c2cncc(Nc3ncc(C(F)(F)F)c(-c4cccc(CC(C)(C)C(=O)O)c4)n3)n2)C1", "Measurement Target": "human DGAT2 (Homo sapiens)", "Group Label": "y"}
{"Smiles Str": "CCOc1ccccc1O[C@@H]1CCCN(c2cncc(Nc3cccc(Oc4cccc(C(=O)O)c4)n3)n2)C1", "Measurement Target": "human DGAT2 (Homo sapiens)", "Group Label": "y"}
{"Smiles Str": "CCOc1ccccc1O[C@@H]1CCCN(c2cncc(Nc3nc4ccc(CCC(=O)O)cc4o3)n2)C1", "Measurement Target": "human DGAT2 (Homo sapiens)", "Group Label": "n"}
{"Smiles Str": "CCOc1ccccc1O[C@@H]1CCCN(c2cncc(Nc3ccnc(-c4cccc(C(C)(C)C(=O)O)c4)n3)n2)C1", "Measurement Target": "human DGAT2 (Homo sapiens)", "Group Label": "y"}
{"Smiles Str": "CCOc1cccnc1O[C@@H]1CCCN(c2cncc(Nc3nccc(-c4cccc(OC(C)(C)C(=O)O)c4)n3)n2)C1", "Measurement Target": "human DGAT2 (Homo sapiens)", "Group Label": "y"}
{"Smiles Str": "CCOc1ccccc1O[C@@H]1CCCN(c2cncc(Nc3cc(C(C)(C)COCCOC)no3)n2)C1", "Measurement Target": "human DGAT2 (Homo sapiens)", "Group Label": "y"}

Source listed as patent US12630528B2.
